Experiment: in vivo
Conditions: mouse, ip
metric-name: TD50 (mg/kg)
All answers are understood in mg/kg, so give the number only.

{"columns": ["compound", "value-measured"],
 "data": [
  ["Clc1ccc2nc(-c3ccccc3)[nH]c2c1", 383]
]}

The value of TD50 measured for the compound COc1ccc(-c2nc3ccccc3[nH]2)cc1 turned out to be 601

====

Biological target: Nav1.6 (Homo sapiens, UniProt Q9UQD0)
Sequence (Q9UQD0 whole entry): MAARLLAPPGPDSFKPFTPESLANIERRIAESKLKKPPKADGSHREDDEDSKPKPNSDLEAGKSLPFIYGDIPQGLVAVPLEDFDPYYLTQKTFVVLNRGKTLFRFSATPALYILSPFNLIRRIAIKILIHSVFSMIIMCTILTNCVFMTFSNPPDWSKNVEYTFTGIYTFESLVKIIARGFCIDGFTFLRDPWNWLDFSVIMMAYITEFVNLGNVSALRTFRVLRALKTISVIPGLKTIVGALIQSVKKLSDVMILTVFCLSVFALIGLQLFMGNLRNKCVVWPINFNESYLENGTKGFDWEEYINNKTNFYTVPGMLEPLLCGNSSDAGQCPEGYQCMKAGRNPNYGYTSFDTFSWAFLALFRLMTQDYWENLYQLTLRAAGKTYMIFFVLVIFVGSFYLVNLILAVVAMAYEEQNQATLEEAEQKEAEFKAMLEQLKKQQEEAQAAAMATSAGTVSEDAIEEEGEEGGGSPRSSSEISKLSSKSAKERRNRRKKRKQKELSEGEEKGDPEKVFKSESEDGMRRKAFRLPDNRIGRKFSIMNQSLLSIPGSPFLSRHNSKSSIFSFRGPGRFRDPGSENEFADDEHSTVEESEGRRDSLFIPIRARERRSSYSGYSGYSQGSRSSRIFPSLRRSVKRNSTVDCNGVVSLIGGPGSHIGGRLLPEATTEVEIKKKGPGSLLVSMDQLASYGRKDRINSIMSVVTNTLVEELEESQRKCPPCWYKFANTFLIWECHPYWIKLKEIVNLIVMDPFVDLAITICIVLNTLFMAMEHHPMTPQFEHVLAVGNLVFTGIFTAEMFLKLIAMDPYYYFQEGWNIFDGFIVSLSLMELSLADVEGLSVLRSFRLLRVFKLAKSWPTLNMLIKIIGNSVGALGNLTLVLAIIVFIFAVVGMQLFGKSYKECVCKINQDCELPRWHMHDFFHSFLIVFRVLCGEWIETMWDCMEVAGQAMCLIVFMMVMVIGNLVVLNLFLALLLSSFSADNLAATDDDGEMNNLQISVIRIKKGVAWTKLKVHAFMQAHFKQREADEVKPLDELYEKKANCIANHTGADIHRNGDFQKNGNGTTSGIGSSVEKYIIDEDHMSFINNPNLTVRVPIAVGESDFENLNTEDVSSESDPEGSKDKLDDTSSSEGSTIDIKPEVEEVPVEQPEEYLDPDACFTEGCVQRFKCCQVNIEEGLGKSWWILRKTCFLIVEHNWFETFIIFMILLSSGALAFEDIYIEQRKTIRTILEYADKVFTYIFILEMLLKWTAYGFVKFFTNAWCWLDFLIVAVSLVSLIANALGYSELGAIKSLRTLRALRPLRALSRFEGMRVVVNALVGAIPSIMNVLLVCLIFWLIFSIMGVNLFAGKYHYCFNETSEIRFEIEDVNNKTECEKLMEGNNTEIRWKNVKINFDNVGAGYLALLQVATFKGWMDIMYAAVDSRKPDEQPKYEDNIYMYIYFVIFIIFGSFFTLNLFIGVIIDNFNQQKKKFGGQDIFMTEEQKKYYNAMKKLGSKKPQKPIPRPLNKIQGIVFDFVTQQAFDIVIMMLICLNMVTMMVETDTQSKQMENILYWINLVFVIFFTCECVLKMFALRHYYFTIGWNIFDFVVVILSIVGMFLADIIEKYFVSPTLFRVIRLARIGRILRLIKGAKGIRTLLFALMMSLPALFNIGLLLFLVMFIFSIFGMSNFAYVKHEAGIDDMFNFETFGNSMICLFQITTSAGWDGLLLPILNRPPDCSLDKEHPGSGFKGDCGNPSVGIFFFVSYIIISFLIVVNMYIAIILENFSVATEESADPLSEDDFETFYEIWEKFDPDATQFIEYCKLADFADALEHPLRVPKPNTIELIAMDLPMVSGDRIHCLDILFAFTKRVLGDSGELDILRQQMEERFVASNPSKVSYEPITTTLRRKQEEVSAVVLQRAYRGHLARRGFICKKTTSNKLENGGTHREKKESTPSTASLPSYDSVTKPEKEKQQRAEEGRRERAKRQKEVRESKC
Assay: % block of Nav1.6 at 100 μM and IC50 (NaV1.6)
Type: cell-based
Conditions: 100 μM compound
Description: Evaluation of Compounds for % Block of Nav1.6 at 100 μM Compounds of the present invention were tested in an assay for % block of Nav1.6 at a concentration of 100 μM compound. Table 1 also indicates the melting point ranges for some compounds. Some such compounds correspond to a compound of Formula III, wherein R9 is substituted with a halogen, a nitro or a CF3 group. […]
Structures can show the parent of a compound that is named as a salt.
metric-name: inhibition at 100 µM

Use these answered entries as a reference point.
{"columns": ["compound", "system-under-test", "metric-name", "value-measured"],
 "data": [
  ["O=C(Nc1cccc(-c2c[nH]c(-c3ccccc3)n2)c1)c1ccc(Cl)cc1 [MV1311, HYDROCHLORIDE]", "Nav1.6 (Homo sapiens, UniProt Q9UQD0)", "inhibition at 100 µM", "90%"],
  ["COc1ccc2nc(-c3ccccc3)[nH]c2c1 [MV1085, 6-methoxy-2-phenyl-1H-1,3-benzodiazole]", "Nav1.6 (Homo sapiens, UniProt Q9UQD0)", "inhibition at 100 µM", "35%"],
  ["COc1cccc(-c2ncc[nH]2)c1 [MV1351, OXALATE]", "Nav1.6 (Homo sapiens, UniProt Q9UQD0)", "inhibition at 100 µM", "25%"]
]}

The value of inhibition at 100 µM measured for the compound COc1ccccc1-c1nc2cc(Cl)ccc2[nH]1 [MV1089] turned out to be 90%

The value of inhibition at 100 µM measured for the compound Clc1ccc(-c2ncc[nH]2)cc1 [MV1353, 2-(4-CHLORO-PHENYL)-1H-IMIDAZOLE OXALATE] turned out to be 30%

The measured values listed here are drawn from patent US12403128B2.
